experimental.system: Monoamine transporters; serotonin & dopamine (Rattus norvegicus) (UniProt P31652+P23977)
Sequence (P31652 whole entry, looked up, one chain of several): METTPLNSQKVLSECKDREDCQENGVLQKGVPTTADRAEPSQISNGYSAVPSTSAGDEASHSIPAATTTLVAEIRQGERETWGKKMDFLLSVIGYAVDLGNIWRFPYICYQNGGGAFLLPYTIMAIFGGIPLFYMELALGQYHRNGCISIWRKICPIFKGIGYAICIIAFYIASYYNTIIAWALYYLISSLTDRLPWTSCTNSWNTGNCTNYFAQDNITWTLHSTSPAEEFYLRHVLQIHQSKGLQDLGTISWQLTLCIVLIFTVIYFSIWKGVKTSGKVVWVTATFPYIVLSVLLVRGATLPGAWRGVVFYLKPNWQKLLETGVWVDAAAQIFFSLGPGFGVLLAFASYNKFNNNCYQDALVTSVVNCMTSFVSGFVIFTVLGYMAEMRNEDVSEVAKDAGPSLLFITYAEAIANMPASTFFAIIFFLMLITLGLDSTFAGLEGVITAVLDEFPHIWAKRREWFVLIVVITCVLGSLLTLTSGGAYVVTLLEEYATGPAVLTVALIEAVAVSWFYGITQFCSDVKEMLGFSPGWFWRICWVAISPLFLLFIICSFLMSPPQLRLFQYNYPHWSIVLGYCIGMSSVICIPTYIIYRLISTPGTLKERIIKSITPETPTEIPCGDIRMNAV
procedure.text: Ratio of reuptake of 5-HT to that of DA
Assay type: functional
measured.attribute: Ratio
Write the value as a bare number.

Recorded results for 5 molecules are shown here.
molecule | experimental.system | Ratio
CN1C2CCC1CN(CCOC(c1ccccc1)c1ccccc1)CC2 (stereo unspecified) | Monoamine transporters; serotonin & dopamine (Rattus norvegicus) (UniProt P31652+P23977) | 6.6
c1ccc(CCCN2CC3CC2CN3CCOC(c2ccccc2)c2ccccc2)cc1 (stereo unspecified) | Monoamine transporters; serotonin & dopamine (Rattus norvegicus) (UniProt P31652+P23977) | 5
CN1C2CCC1CN(CCOC(c1ccccc1)c1ccccc1)C2 | Monoamine transporters; serotonin & dopamine (Rattus norvegicus) (UniProt P31652+P23977) | 12
c1ccc(C(OCCN2CCC3CCC(C2)N3)c2ccccc2)cc1 (stereo unspecified) | Monoamine transporters; serotonin & dopamine (Rattus norvegicus) (UniProt P31652+P23977) | 15
Fc1ccc(C(OCCN2CC3CCC(C2)N3Cc2cc3ccccc3[nH]2)c2ccc(F)cc2)cc1 | Monoamine transporters; serotonin & dopamine (Rattus norvegicus) (UniProt P31652+P23977) | 16

Looking up CN1C2CCC1CN(CCOC(c1ccc(F)cc1)c1ccc(F)cc1)CC2 (stereo unspecified) , I see its Ratio listed as 47

Looking up Fc1ccc(C(OCCN2CCC3CCC(C2)N3CCCc2ccccc2)c2ccc(F)cc2)cc1 (stereo unspecified) , I see its Ratio listed as 44

Looking up CN1CC2CC1CN2CCOC(c1ccccc1)c1ccccc1 (stereo unspecified) , I see its Ratio listed as 33

###

experimental.system: Sodium-dependent dopamine transporter (Rattus norvegicus, UniProt P23977)
Sequence (P23977 whole entry): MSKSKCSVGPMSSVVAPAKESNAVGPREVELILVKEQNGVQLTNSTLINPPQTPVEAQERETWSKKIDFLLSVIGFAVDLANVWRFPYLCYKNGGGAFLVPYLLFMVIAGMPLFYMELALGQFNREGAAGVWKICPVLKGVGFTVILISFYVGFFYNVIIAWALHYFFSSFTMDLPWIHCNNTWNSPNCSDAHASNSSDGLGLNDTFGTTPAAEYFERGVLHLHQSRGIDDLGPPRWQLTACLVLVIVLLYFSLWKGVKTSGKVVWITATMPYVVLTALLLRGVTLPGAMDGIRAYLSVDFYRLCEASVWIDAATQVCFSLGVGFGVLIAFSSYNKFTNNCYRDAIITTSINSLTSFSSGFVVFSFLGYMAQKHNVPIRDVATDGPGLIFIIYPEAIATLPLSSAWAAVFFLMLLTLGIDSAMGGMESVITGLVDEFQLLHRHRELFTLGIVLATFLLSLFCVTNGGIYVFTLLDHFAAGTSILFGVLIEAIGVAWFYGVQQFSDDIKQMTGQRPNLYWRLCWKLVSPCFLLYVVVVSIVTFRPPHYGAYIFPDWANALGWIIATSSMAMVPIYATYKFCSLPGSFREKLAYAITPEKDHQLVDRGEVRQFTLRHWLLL
procedure.text: Inhibition of [3H]DA reuptake in rat caudate homogenate.
Assay type: functional, tissue-based
We label by threshold. Values of IC50 strictly beneath 100 nM are MET. Values of 100 nM and up are NOT MET.

compound | discrete.label
c1ccc(CCCN2C3CCC2CN(CCOC(c2ccccc2)c2ccccc2)C3)cc1 | MET

Lab log: compare recorded IC50 with 100 nM; is it strictly lower for Fc1ccc(C(OCCN2CCC3CCC(C2)N3CCCc2ccccc2)c2ccc(F)cc2)cc1 (stereo unspecified) ? MET

Lab log: compare recorded IC50 with 100 nM; is it strictly lower for Fc1ccc(C(OCCN2CC3CC2CN3CCCc2ccccc2)c2ccc(F)cc2)cc1 (stereo unspecified) ? NOT MET

Lab log: compare recorded IC50 with 100 nM; is it strictly lower for Fc1ccc(C(OCCN2CC3CCC(C2)N3C/C=C/c2cccs2)c2ccc(F)cc2)cc1 ? MET

Lab log: compare recorded IC50 with 100 nM; is it strictly lower for c1ccc(CCCN2C3CCC2CN(CCOC(c2ccccc2)c2ccccc2)CC3)cc1 (stereo unspecified) ? MET

Lab log: compare recorded IC50 with 100 nM; is it strictly lower for c1ccc(C(OCCN2CCC3CCC(C2)N3)c2ccccc2)cc1 (stereo unspecified) ? NOT MET

Lab log: compare recorded IC50 with 100 nM; is it strictly lower for CN1C2CCC1CN(CCOC(c1ccccc1)c1ccccc1)CC2 (stereo unspecified) ? NOT MET

Lab log: compare recorded IC50 with 100 nM; is it strictly lower for Fc1ccc(C(OCCN2CC3CCC(C2)N3C/C=C/c2cccnc2)c2ccc(F)cc2)cc1 ? MET

Lab log: compare recorded IC50 with 100 nM; is it strictly lower for Fc1ccc(C(OCCN2CC3CCC(C2)N3Cc2cc3ccccc3[nH]2)c2ccc(F)cc2)cc1 ? MET

Lab log: compare recorded IC50 with 100 nM; is it strictly lower for CN1C2CCC1CN(CCOC(c1ccccc1)c1ccccc1)C2 ? NOT MET

Lab log: compare recorded IC50 with 100 nM; is it strictly lower for Fc1ccc(C(OCCN2CC3CCC(C2)N3CCCc2ccccc2)c2ccc(F)cc2)cc1 ? NOT MET

###

experimental.system: Monoamine transporters; serotonin & dopamine (Rattus norvegicus) (UniProt P31652+P23977)
procedure.text: Ratio of binding affinity of 5-HT to that of DA
Type: protein assay
Lab note: anything with Ratio at or over 10 counts as met; the rest go in not met.

compound | discrete.label
CN1C2CCC1CN(CCOC(c1ccc(F)cc1)c1ccc(F)cc1)C2 | met
c1ccc(CCCN2CC3CC2CN3CCOC(c2ccccc2)c2ccccc2)cc1 (configuration not stated) | not met
c1ccc(CCCN2C3CCC2CN(CCOC(c2ccccc2)c2ccccc2)CC3)cc1 (configuration not stated) | met
c1ccc(CCCN2C3CCC2CN(CCOC(c2ccccc2)c2ccccc2)C3)cc1 | met
Fc1ccc(C(OCCN2CCC3CCC(C2)N3CCCc2ccccc2)c2ccc(F)cc2)cc1 (configuration not stated) | not met

Threshold query (Ratio >= 10) on CN1CC2CC1CN2CCOC(c1ccccc1)c1ccccc1 (configuration not stated) met

Threshold query (Ratio >= 10) on Fc1ccc(C(OCCN2CC3CCC(C2)N3C/C=C/c2cccnc2)c2ccc(F)cc2)cc1 met

Threshold query (Ratio >= 10) on Fc1ccc(C(OCCN2CC3CCC(C2)N3Cc2cc3ccccc3[nH]2)c2ccc(F)cc2)cc1 met

###

experimental.system: Sodium-dependent serotonin transporter (Rattus norvegicus, UniProt P31652)
Sequence (P31652 whole entry): as the sequence (P31652 whole entry, looked up, one chain of several) above
procedure.text: Inhibition of [3H]5-HT reuptake in whole rat brain (minus cerebellum) homogenate.
Assay type: functional, tissue-based
pIC50: −log10 of the molar value.
Lab note: anything with pIC50 at or over 6 counts as 1.0; the rest go in 0.0.

molecule | discrete.label
Fc1ccc(C(OCCN2CC3CCC(C2)N3CCCc2ccccc2)c2ccc(F)cc2)cc1 | 1.0
CN1C2CCC1CN(CCOC(c1ccccc1)c1ccccc1)C2 | 0.0

Threshold query (pIC50 >= 6) on CN1C2CCC1CN(CCOC(c1ccc(F)cc1)c1ccc(F)cc1)CC2 (configuration not stated) 0.0

Threshold query (pIC50 >= 6) on Fc1ccc(C(OCCN2CCC3CCC(C2)N3CCCc2ccccc2)c2ccc(F)cc2)cc1 (configuration not stated) 0.0

Threshold query (pIC50 >= 6) on Fc1ccc(C(OCCN2CC3CC2CN3CCCc2ccccc2)c2ccc(F)cc2)cc1 (configuration not stated) 1.0

###

experimental.system: Sodium-dependent serotonin transporter (Rattus norvegicus, UniProt P31652)
procedure.text: Binding affinity for rat 5-hydroxytryptamine transporter.
The following compounds are listed with their measured pIC50 values.
API: returns pIC50 as number; meaning -log10 of concentration in mol/L.

Recorded results for 2 compounds are shown here.
compound | measured.attribute | result.number
c1ccc(CCCN2CC3CC2CN3CCOC(c2ccccc2)c2ccccc2)cc1 (stereo not drawn) | pIC50 | 6.14
Fc1ccc(C(OCCN2CCC3CCC(C2)N3CCCc2ccccc2)c2ccc(F)cc2)cc1 (stereo not drawn) | pIC50 | 6.07

Alright, here's another compound for you.
Looking up c1ccc(CCCN2C3CCC2CN(CCOC(c2ccccc2)c2ccccc2)CC3)cc1 (stereo not drawn) , I see its pIC50 listed as 5.88

###

The following compounds are listed with their measured Ratio values.
experimental.system: Monoamine transporters; serotonin & dopamine (Rattus norvegicus) (UniProt P31652+P23977)
procedure.text: Ratio of reuptake of 5-HT to that of DA
Format: functional
Write the value as a bare number.

Recorded results for 2 compounds are shown here.
smiles.string | experimental.system | Ratio
CN1C2CCC1CN(CCOC(c1ccc(F)cc1)c1ccc(F)cc1)C2 | Monoamine transporters; serotonin & dopamine (Rattus norvegicus) (UniProt P31652+P23977) | 93
c1ccc(CCCN2C3CCC2CN(CCOC(c2ccccc2)c2ccccc2)C3)cc1 | Monoamine transporters; serotonin & dopamine (Rattus norvegicus) (UniProt P31652+P23977) | 58

Alright, here's another compound for you.
Value sought: Ratio, system Monoamine transporters; serotonin & dopamine (Rattus norvegicus) (UniProt P31652+P23977), item Fc1ccc(C(OCCN2CC3CCC(C2)N3C/C=C/c2cccnc2)c2ccc(F)cc2)cc1 . Result: 40

###

experimental.system: Monoamine transporters; serotonin & dopamine (Rattus norvegicus) (UniProt P31652+P23977)
procedure.text: Ratio of binding affinity of 5-HT to that of DA
Type: protein assay
The following compounds are listed with their measured Ratio values.

Recorded results for 3 compounds are shown here.
compound | measured.attribute | result
CN1C2CCC1CN(CCOC(c1ccccc1)c1ccccc1)CC2 (centres undefined) | Ratio | 56
CN1CC2CC1CN2CCOC(c1ccc(F)cc1)c1ccc(F)cc1 (centres undefined) | Ratio | 14
Fc1ccc(C(OCCN2CC3CCC(C2)N3C/C=C/c2ccco2)c2ccc(F)cc2)cc1 | Ratio | 27

Looking up Fc1ccc(C(OCCN2CC3CC2CN3CCCc2ccccc2)c2ccc(F)cc2)cc1 (centres undefined) , I see its Ratio listed as 1.6
